Cited source for all entries: PubChem BioAssay

Molecular target: Nuclear receptor coactivator 3 (Homo sapiens)
Assay: SRC3 coactivator transcriptional activity inhibitors, confirmation, cell-based, luminescence, quadruplicate (AID 588792);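 also: 0% = DMSO treated cells and 100% = gossypol at 36 µM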
Settings: HEK293 GAL4-SRC3 luciferase reporter, at 3.6 µM, hits give high values
Readout type: inhibition (%)
// note: answer is a bare numeric in %

Here is how some compounds turned out for inhibition.
Mol smiles: NC(=O)C(C(=O)/C=C/c1ccc(Cl)cc1)=C1SCCS1
inhibition / %: 29.4
--
Mol smiles: COc1ccc(C(=O)Nc2nc(-c3ccc(S(=O)(=O)N4CCOCC4)cc3)cs2)cc1
inhibition / %: -12.4
--
Mol smiles: COc1ccccc1N(CC(=O)N/N=C/c1c(O)ccc2ccccc12)S(C)(=O)=O
inhibition / %: 34.2
--
Mol smiles: COc1ccc(-c2noc(CCCC(=O)O)n2)cc1
inhibition / %: 44.7
--
Mol smiles: COc1cccc(/C=N/NC(=O)c2cc3c(OC)cccc3[nH]2)c1O
inhibition / %: 28.5
--
Mol smiles: Nc1ccc(Oc2cccc(Oc3ccc(N)cc3)c2)cc1
inhibition / %: 43.4
--
Mol smiles: O=C(NCc1cccs1)c1nc2c(nnn2Cc2ccccc2Cl)c(=O)[nH]1
inhibition / %: 84.2
--
Mol smiles: Cc1cc2nccc(-c3ccncc3)n2n1
inhibition / %: 38.2
--
Mol smiles: Cc1ccc(S(=O)(=O)/N=C2\C=C(Nc3ccc(O)cc3)C(=O)c3ccccc32)cc1
inhibition / %: 91.8
--
Mol smiles: CC(=O)Nc1ccc(NC(=O)c2ccc(N(Cc3ccccc3C)S(C)(=O)=O)cc2)cc1
inhibition / %: -0.29

Please turn your attention to the following entry.
The compound listed as CC#CC[N+](C)(C)CCCCCCCCCC has a reported inhibition of 4.4
